- target_or_system: T1, soluble monomeric FcγRIIIA (extracellular region joined to linker-AVITAG), allele not stated (human, UniProt P08637 17-208)
- T1 construct: extracellular domain; also called FcRIIIA; CD16A; not shown: linker-AVITAG
- T1 sequence (P08637 17-208): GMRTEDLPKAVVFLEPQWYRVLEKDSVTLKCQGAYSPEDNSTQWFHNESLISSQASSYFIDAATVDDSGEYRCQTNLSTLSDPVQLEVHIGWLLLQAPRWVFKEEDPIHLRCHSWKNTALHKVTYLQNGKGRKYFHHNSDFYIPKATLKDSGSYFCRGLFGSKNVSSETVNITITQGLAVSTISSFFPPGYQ
- measurement_description: ELISA
Provide the recorded Binding to FcγRIIIA (ELISA) for the entries that follow.
Provide only the numeric value, understood in fold increase.

Measured Binding to FcγRIIIA (ELISA), IgG1 Fc mutant K326Q, K334E, T359N, T366S (antibody) heavy: ASTKGPSVFPLAPSSKSTSGGTAALGCLVKDYFPEPVTVSWNSGALTSGVHTFPAVLQSSGLYSLSSVVTVPSSSLGTQTYICNVNHKPSNTKVDKKVEPKSCDKTHTCPPCPAPELLGGPSVFLFPPKPKDTLMISRTPEVTCVVVDVSHEDPEVKFNWYVDGVEVHNAKTKPREEQYNSTYRVVSVLTVLHQDWLNGKEYKCKVSNQALPAPIEETISKAKGQPREPQVYTLPPSRDELNKNQVSLSCLVKGFYPSDIAVEWESNGQPENNYKTTPPVLDSDGSFFLYSKLTVDKSRWQQGNVFSCSVMHEALHNHYTQKSLSLSPGK : 1.5

Measured Binding to FcγRIIIA (ELISA), IgG1 Fc mutant P343S, P353L, S375I, S383N (antibody) heavy: ASTKGPSVFPLAPSSKSTSGGTAALGCLVKDYFPEPVTVSWNSGALTSGVHTFPAVLQSSGLYSLSSVVTVPSSSLGTQTYICNVNHKPSNTKVDKKVEPKSCDKTHTCPPCPAPELLGGPSVFLFPPKPKDTLMISRTPEVTCVVVDVSHEDPEVKFNWYVDGVEVHNAKTKPREEQYNSTYRVVSVLTVLHQDWLNGKEYKCKVSNKALPAPIEKTISKAKGQSREPQVYTLPLSRDELTKNQVSLTCLVKGFYPIDIAVEWENNGQPENNYKTTPPVLDSDGSFFLYSKLTVDKSRWQQGNVFSCSVMHEALHNHYTQKSLSLSPGK : 0.5
